pKi values for the molecules below.
# measured-on: HA1 adenosine receptor (Homo sapiens, UniProt P30542)
# Sequence (P30542 1-326): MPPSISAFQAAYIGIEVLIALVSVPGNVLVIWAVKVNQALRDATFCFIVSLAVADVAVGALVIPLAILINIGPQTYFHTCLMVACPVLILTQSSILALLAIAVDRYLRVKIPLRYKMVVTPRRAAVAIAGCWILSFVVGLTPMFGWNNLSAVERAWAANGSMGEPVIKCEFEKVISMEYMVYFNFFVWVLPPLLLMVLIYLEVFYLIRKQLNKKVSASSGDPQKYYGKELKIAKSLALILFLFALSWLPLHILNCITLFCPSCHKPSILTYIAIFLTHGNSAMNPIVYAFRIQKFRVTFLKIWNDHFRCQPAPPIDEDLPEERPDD
# assay-explanation: Human adenosine A1 receptor affinity (Ki hA1)
# Assay type: binding
# assay-conditions: affinity to human adenosine A1 receptor
Convention used: pKi is expressed as -log10 of the molar concentration.

# example entries with known answers
Exercise: What does the data say about its pKi? Entry: Nc1cc(C(=O)N2CCC2)cc2nc(-c3ccc(Cl)o3)nn12 [Example 249]
Solution: 5.21

Exercise: What does the data say about its pKi? Entry: CCN(C(=O)c1cc(N)n2nc(-c3nccs3)nc2c1)C(C)C [Example 288]
Solution: 5.85

Exercise: What does the data say about its pKi? Entry: COCCN(CCOC)C(=O)c1cc(N)n2nc(-c3ccc(Cl)o3)nc2c1 [Example 260]
Solution: 6.57

Exercise: What does the data say about its pKi? Entry: CCCN(C)C(=O)c1cc(N)n2nc(-c3nccs3)nc2c1 [Example 284]
Solution: 5.41

Exercise: What does the data say about its pKi? Entry: CC(NC(=O)c1cc(N)n2nc(-c3ccoc3)nc2c1)c1ccccc1 (centres unmarked) [Example 225]
Solution: 6.90

Exercise: What does the data say about its pKi? Entry: CCCCNC(=O)c1cc(N)n2nc(-c3nccs3)nc2c1 [Example 119]
Solution: 6.37

Query molecule follows.
Exercise: What does the data say about its pKi? Entry: Nc1cc(C(=O)NCc2ccccc2Br)cc2nc(-c3ccccc3O)nn12 [Example 160]
Solution: 6.86
